Collected OD450 values appear next to each entry.
Target entity: T1, EGFR Fc (human, UniProt P00533 25-645)
T1 construct: also called EGFR-hFc; recombinant human EGFR-Fc
Measurement notes: blocking ELISA, EGFR-hFc + VHH at 0 nM on coated EGF-mFc

>  <Binder>
pgEG-SX3 (VHH, not shown: small tags and cut ends) VHH: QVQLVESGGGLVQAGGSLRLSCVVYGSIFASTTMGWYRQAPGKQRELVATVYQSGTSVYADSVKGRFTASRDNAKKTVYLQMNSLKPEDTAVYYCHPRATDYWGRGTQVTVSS

>  <OD450>
1.06

$$$$
>  <Binder>
pgEG-SX40 (VHH, not shown: small tags and cut ends) VHH: QVQLVESGGGLVQAGGSLRLSCTGSGIRFSFYTLGWYRQAPGKQRELVAEIYSSDNAKYEDSVKGRFAISRDNAKNSVSLQMNSLKPEDTAVYYCNVRATDYWGPGTQVTVSS

>  <OD450>
1.14

$$$$
>  <Binder>
pgEG5 (VHH, not shown: small tags and cut ends) VHH: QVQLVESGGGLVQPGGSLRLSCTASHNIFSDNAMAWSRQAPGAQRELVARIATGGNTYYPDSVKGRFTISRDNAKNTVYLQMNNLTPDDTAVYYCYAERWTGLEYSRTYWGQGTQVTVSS

>  <OD450>
1.2

$$$$
>  <Binder>
pgEG-SX6 (VHH, not shown: small tags and cut ends) VHH: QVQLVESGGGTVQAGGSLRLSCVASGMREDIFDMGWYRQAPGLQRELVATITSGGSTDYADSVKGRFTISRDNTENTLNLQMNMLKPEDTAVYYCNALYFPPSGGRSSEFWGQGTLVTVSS

>  <OD450>
1.04

$$$$
>  <Binder>
pgEG-SX22 (VHH, not shown: small tags and cut ends) VHH: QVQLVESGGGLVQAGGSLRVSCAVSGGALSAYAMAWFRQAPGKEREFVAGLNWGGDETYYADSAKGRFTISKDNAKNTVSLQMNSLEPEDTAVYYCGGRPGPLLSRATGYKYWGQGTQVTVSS

>  <OD450>
1.07

$$$$
>  <Binder>
pgEG-SX57 (VHH, not shown: small tags and cut ends) VHH: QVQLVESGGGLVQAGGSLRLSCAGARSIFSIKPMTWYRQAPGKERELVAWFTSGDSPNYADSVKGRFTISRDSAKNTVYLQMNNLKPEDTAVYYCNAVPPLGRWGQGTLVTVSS

>  <OD450>
1.11

$$$$
